# assayedTarget: IRAK4 (Homo sapiens, UniProt Q9NWZ3)
# Construct: Degradation of IRAK4 in OCI-LY10 was quantitatively measured using Meso Scale Discovery technology; endogenous in cells; host or cells: OCI-LY10
# Sequence (Q9NWZ3 whole entry): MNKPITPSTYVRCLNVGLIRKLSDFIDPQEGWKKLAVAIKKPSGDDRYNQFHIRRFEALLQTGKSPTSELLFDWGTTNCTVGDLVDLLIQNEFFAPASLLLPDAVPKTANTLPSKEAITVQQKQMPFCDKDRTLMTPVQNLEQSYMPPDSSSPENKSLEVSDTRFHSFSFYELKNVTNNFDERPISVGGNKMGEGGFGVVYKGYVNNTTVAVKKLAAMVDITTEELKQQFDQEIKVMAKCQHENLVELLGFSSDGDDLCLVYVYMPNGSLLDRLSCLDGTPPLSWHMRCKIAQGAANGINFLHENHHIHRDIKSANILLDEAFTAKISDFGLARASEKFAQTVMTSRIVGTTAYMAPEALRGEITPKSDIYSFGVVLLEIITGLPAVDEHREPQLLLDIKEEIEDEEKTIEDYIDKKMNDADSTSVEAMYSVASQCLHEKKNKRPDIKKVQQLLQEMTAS
# measurementNotes: IRAK4 MSD Degradation in OCI-LY10
# Format: cell-based
# studyConditions: OCI-LY10 cells, 24 hrs incubation, MSD; read-out: IRAK4 degradation in OCI-LY10 at 24 hrs: DC50
readoutType: DC50

These solved cases illustrate the format of a correct answer.
Input: Value lookup for DC50; key = COc1cc2nn([C@H]3CC[C@H](CN4CCC5(CC4)CCN(c4c(C)ccc6c4n(C)c(=O)n6C4CCC(=O)NC4=O)CC5)CC3)cc2cc1NC(=O)c1cncc(C#N)c1 (some centres unmarked)
Output: > 0.2 µM

Input: Field request: DC50 | item: Cn1c(=O)n(C2CCC(=O)NC2=O)c2cccc([C@H]3CCN(C[C@H]4CC[C@H](n5cc6cc(NC(=O)c7cccc(C#N)n7)c(C(C)(C)O)cc6n5)CC4)C[C@H]3F)c21 (some centres unmarked)
Output: > 0.2 µM

Input: Can you look up the measured DC50 of Cn1c(=O)n(C2CCC(=O)NC2=O)c2cccc([C@H]3CCN(C[C@H]4CC[C@H](n5cc6cc(NC(=O)c7cccc(C#N)n7)c(C(C)(C)O)cc6n5)CC4)C[C@@H]3F)c21 (some centres unmarked) for me?
Output: > 0.2 µM

Input: Fill in the blank: the reported DC50 of CN(C[C@]1(O)CC[C@@H](n2cc(NC(=O)c3cnn4cccnc34)c(C(F)F)n2)CC1)C1CCN(c2cccc3c2n(C)c(=O)n3C2CCC(=O)NC2=O)CC1 (some centres unmarked) is ____.
Output: > 0.2 µM

Input: Quick one: DC50 of Cn1c(=O)n(C2CCC(=O)NC2=O)c2cccc(C#CCN3CCN(C[C@H]4CC[C@H](n5cc(NC(=O)c6cnn7cc(N8CCCCC8)cnc67)c(C(F)F)n5)CC4)CC3)c21 (some centres unmarked) ?
Output: > 0.2 µM

Kindly review the next compound as well.
Input: Which DC50 is listed for CC(C)(O)c1cc2nn(C3CCC(CNCCCCCNc4cccc5c4C(=O)N(C4CCC(=O)NC4=O)C5=O)CC3)cc2cc1NC(=O)c1cccc(C(F)(F)F)n1 (centres unmarked) ?
Output: < 0.01 µM
